# credit: ChEMBL document CHEMBL1129014

- Species: Cavia porcellus
- Method: Inhibitory activity against potassium (15 mM) induced contractions of the guinea pig detrusor smooth muscle.
- Type: functional
pIC50: −log10 of the molar value.
Assay readout: pIC50

• C[C@@]1(C(F)(F)F)CN(c2cccc[n+]2[O-])c2cc(S(=O)(=O)c3ccccc3)ccc2O1 = 6.55

[A] CC1(C)Oc2ccc(C#N)cc2[C@@H](N2CCCC2=O)[C@@H]1O
[B] C[C@](O)(C(=O)Nc1ccc(S(=O)(=O)c2ccccc2)cc1)C(F)(F)F
I would appreciate it if you could say which entry, A or B , has the lower pIC50 value. Lab note: record the label of whichever item you select.
B

[A] C[C@]1(C(F)(F)F)CN(c2cccc[n+]2[O-])c2cc(S(=O)(=O)c3ccccc3)ccc2O1
[B] O=[N+]([O-])c1ccc2c(c1)N(c1cccc[n+]1[O-])CC(C(F)F)(C(F)F)O2
[C] CC1(C)CN(c2cccc[n+]2[O-])c2cc(S(=O)(=O)c3ccccc3)ccc2O1
Order the entries by their reported pIC50, beginning at the minimum. Returns: the labels arranged in the requested order.
C, A, B
(C: 5.39, A: 6.17, B: 8.15)
